TARGET ENTITY: Amine oxidase [flavin-containing] B (Homo sapiens, UniProt P27338)
Sequence (P27338 whole entry): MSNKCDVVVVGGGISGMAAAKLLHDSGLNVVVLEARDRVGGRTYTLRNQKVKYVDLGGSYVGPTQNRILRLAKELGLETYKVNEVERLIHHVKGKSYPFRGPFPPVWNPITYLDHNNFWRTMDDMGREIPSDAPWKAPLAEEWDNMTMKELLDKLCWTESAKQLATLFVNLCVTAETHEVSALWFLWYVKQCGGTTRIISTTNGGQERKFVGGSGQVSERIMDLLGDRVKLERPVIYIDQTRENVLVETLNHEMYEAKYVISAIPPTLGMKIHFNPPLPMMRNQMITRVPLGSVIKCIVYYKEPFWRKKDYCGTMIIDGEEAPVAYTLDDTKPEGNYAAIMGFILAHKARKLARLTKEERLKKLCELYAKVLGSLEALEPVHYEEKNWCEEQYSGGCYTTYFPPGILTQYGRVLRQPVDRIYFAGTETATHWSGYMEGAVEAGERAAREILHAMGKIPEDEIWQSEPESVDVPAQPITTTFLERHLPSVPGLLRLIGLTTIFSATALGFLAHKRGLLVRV
TEST DETAILS: Inhibition of human MAO-B using benzylamine as substrate
IC50 values, listed per item
Field format: number, assumed nM, no unit text.

Request: # value lookup — system Amine oxidase [flavin-containing] B (Homo sapiens, UniProt P27338), readout IC50, item O=C(/C=C/c1ccc([N+](=O)[O-])cc1)c1ccccc1
Result: 29

Next:
Request: # value lookup — system Amine oxidase [flavin-containing] B (Homo sapiens, UniProt P27338), readout IC50, item CCOc1ccc(C(=O)/C=C/c2ccc(C(F)(F)F)cc2)cc1
Result: 210

Request: # value lookup — system Amine oxidase [flavin-containing] B (Homo sapiens, UniProt P27338), readout IC50, item O=C(/C=C/c1ccc(Br)cc1)c1ccc(-n2ccnc2)cc1
Result: 320

Request: # value lookup — system Amine oxidase [flavin-containing] B (Homo sapiens, UniProt P27338), readout IC50, item CCOc1ccc(C(=O)/C=C/c2ccc(O)cc2)cc1
Result: 210

Request: # value lookup — system Amine oxidase [flavin-containing] B (Homo sapiens, UniProt P27338), readout IC50, item CCOc1ccc(C(=O)/C=C/c2ccc(F)cc2)cc1
Result: 53

Request: # value lookup — system Amine oxidase [flavin-containing] B (Homo sapiens, UniProt P27338), readout IC50, item CCOc1ccc(C(=O)/C=C/c2ccc(C)cc2)cc1
Result: 210
